target: human adenosine A2A receptor (Homo sapiens, UniProt P29274); construct: expressed in transfected cells; host or cells: CHO cells, semliki forest virus expression system; washed membrane pellet used; experiment: [3H]-SCH-58261 binding assay, human adenosine A2A receptor (CHO cell membranes, SPA); conditions: displacement of [3H]-SCH-58261 (1 nM); recombinant receptor in CHO membranes; Ki by Cheng-Prussoff equation; read-out: hA2 (pKi) (converted)
Sequence (P29274 whole entry): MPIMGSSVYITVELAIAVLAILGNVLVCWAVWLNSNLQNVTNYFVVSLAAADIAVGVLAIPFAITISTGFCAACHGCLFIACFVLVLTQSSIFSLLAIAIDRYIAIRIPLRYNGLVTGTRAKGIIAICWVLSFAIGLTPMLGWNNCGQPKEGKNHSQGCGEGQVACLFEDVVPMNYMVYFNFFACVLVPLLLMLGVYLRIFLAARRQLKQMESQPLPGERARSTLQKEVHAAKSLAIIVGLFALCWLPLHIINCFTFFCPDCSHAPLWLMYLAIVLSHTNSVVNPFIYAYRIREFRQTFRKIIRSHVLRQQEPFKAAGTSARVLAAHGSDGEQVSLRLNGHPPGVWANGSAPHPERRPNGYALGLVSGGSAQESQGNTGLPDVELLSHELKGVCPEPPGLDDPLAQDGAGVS
parameter: Ki (nM)

A: Cc1ccc(CC2(O)CCN(C(=O)Nc3nc4c(Cl)ccc(N5CCCCC5)c4s3)CC2)cc1
B: COc1ccc(N2CCOCC2)c2sc(NC(=O)NC3CCCC3)nc12
C: O=C(Nc1nc2c(Cl)ccc(N3CCCCC3)c2s1)N1CCC(Cc2ccccc2)CC1
Q: Quick favor: sort the compounds up above by Ki, largest first. Answer format: the labels, in the requested order.
A: C, B, A
(C: 15.8 nM, B: 7.94 nM, A: 3.16 nM)

1: COc1ccc(N2CCOCC2)c2sc(NC(=O)N(C)C3CCCC3)nc12
2: COc1ccc(N2CCOCC2)c2sc(NC(=O)NC3CCOCC3)nc12
3: COc1ccc(N2CCCCC2)c2sc(NC(=O)N3CCC4(CCCO4)CC3)nc12
Q: Falling order of Ki, please. Response format: the labels, sorted as the prompt asks.
A: 2, 1, 3

a: COc1ccc(N2CCOCC2)c2sc(NC(=O)N3CCC([C@H](C)O)CC3)nc12
b: COc1ccc(N2CCOCC2)c2sc(NC(=O)N(C)[C@H]3CC[C@@H](O)CC3)nc12
Q: Identify the entry with the larger Ki. Options: a and b The response must carry the label of the picked entry.
A: b
(b: 12.6 nM, a: 7.94 nM)
